test: yeast display, Sf9 membrane polyspecificity reagent, FACS + sequencing; frameworks hold sequencing errors
assay readout: polyreactivity (PSR sort gate)

sequence_input=QVQLEESGGGLVQAGGSLRLSCAASGSIFRNYAIGWYRQAPGKEREFVAANTYSGGSTHYADSVKGRFTISRDNAKNTVYLQMNSLKPEDTAVYYCAADYYWRVHYGYWGQGTQVTVSS readout_value="high polyreactivity"
sequence_input=QVQLVESGGGLVQAGGSLRLSCAASGFTFYRYTMGRYRQAPGKERELVAAITWSGGNTYYADSVKGRFTISRDNAKNTVYLQMNSLKPEDNAVYYCAAYKPYSKYNYWGQGTQVTVSS readout_value="high polyreactivity"
sequence_input=QVQLVESGGGLVQAGGSLRLSCADSGSIFRDNVMGWYRQAPGKEREFVAAISRRGGITYYADSVKGRFTISRDNAKNTVYLQMNSLKPEDTAVYYCATTGGRQYGYWGQGTQVTVSS readout_value="high polyreactivity"
sequence_input=QVQLVESGGGLVQAGGSLRLSCAASGSTLFFYTMGWYRQAPGKERELVAAITRGGSTYYADSVKGRFTISRDNAKNTVYLQLNSLKPEDTAVYYCAAPYVRPKKVYNYDYWGQGTQVTVSS readout_value="high polyreactivity"
sequence_input=QVQLVESGGGLVQAGGSLRLSCAASGRIISVYAMGWYRQAPGKERELVATITGGNTNYADSVKGRFTISRDNAKNTVYLQMNSLKPEDTAVYYCANQFLPSGVYYEYDSWGQGTQVTVSS readout_value="low polyreactivity"
sequence_input=QVQLVESGGGLVQAGGSLRLSCAASGSTFRFNTMGWYRHAPGKDRELVAAITSGGSTYYADSVKGLFTISRDNAKNTVYLQMNSLKPEDTAVYYCAATWYIRGQCYYYWGQGTQVTVSS readout_value="high polyreactivity"
sequence_input=QVQLVESGGGLFKAGGSLRLSSAASGSIFQNYDMGWYRQAPGNERELVAAISSSGDTYYADSVKGRFTISLDNAKNTVYLQMNSLKPEDTAVYYCAATYPYSLYYPYYGGDYDYWGQGTQVTVSS readout_value="low polyreactivity"
sequence_input=QVQLVESGGGLVQAGGSLRLSCAASGRIFRYNAMGWYRQAPGKERELVAAISWSGGSTYADSVKGRFTISRDNAKNTVYLQMNSLKPEDTAVYFCAADSSDLYVWGYDHGGQGTQVTVSS readout_value="low polyreactivity"
sequence_input=QVQLVESGGGLVQAGGSLRLSCAASGNIFYYNAMGWSRQGPGKEMELVAAISSGGSTNYADSVKGRFTISRDNAKNTVYLQMNSLKPEDTAVYYCAANYVTIGSGYYGYDYWGQGTQVTVSS readout_value="low polyreactivity"
sequence_input=QVQLVESGGGLVQVGGSLRLSCAASGRTFYDYAMGWYRQAPGKERELVAAITWSGGSTYYADSVKGRFTISRDNAKNTVYLQMNSLKPEDTAVSYCAKGGSYQSRYDYWGQGTQVTVSS readout_value="low polyreactivity"
sequence_input=QVQLVESGGGLVQAGGSLRLSCAASGSIFYANAMGWYRQAPAKERELVAAIRSGGSTNYADSVKGRFTISRDNAKKTVYLQMNSLKPEDTAVYYCAAVWRYWSGQKVGYWGQGTQVTVSS readout_value="high polyreactivity"
sequence_input=QVQLVESGGGLVQAGGSLRLSCAASGSIIVVYAMGWSRQAPGKERELVAAISWGIGSTYYADSVKGRFTISRDNAKNTVYLLMNILKPEETAVYYCAAVTDIVLYDYWGQGTQVTVSS readout_value="low polyreactivity"
sequence_input=QVQLVESGGGLVQAGGSLRLSCAASGFTFYIYAMGWYRQAPGKERELVAAINFRGGSTYYADSVKGRFTISRDNAKNTVYLQMNSLKPEDTAVYYCAARSRDKYDYWGQGTQVTVSS readout_value="high polyreactivity"
sequence_input=QVQLVESGGGLVQAGGSLRLSCAASGSTFDANAMGWYRQAPGKERELVAAITSNGGSTYYADSVKGRFTISRDNAKNTVYLQMNSLKPEDTAVYYCDTEQHTVQDYDYWGQGTQVTVSS readout_value="low polyreactivity"
sequence_input=QVQLVESGGGLVQAGGSLRLSSAASGHHFRTNAMGWYRQAPGKERELVAVINIGGASTYYADSVKGRFTISRDNAKNTVNLQMNSLKPEDTAVYYCAQEFYDGYFPTFDYDYWGQGTQVTVSS readout_value="low polyreactivity"
sequence_input=QVQHVESGRGLVQAGGSLRLSCAAYGRIPYKAMGWYKQAPGKERELVAAISRSGTRTYYADSVKGRYTISRDNAKNTVYLQMISLKPQDTAVYYCAAPVSGYSSDYWGQGTQVTVSS readout_value="high polyreactivity"
sequence_input=QVQLVESGGGLFQAGGSLRLSCAASGSIFNRYAMGWYRQAPGKERELVAAISSGGRTKYADSVKGRFTISRDNAKNTVYLQMNSLKPEDTAVYYCNAAYFLSGTCRTFDYWGQGTQVTVSS readout_value="high polyreactivity"
sequence_input=QVQLVESGGGLVQAGGSLRISCAASGNAMGWYRQAPGKERELVAVITGGGSTYYADSVKGRFTISRDNAKNTVYLQMNSLKPEDTAVYYCAAKGPYYKSSRTGDYWGQGTQVTVSS readout_value="low polyreactivity"
sequence_input=QVQLVESGGGLVQAGGSLRLSCAASGGTFATYAMGWYRQAPGKERELVAAISWSGGSTYYAVSVKGRFTISRDNAKNTVYLQMNSLKPEDTAVYYCAAASRAPSGLYYYWGQGTQVTVSS readout_value="high polyreactivity"
sequence_input=QVQLVESGGGLVQAGGSLRLSCAASGIMFTSNTMGSYRQAPGKEREFVASINWNGSSTYADSVKGRFTISRDNAKNTDYLQMNSLKPEDTAVYYCNADYNRNSVQFSLYDYWGQGTQVTVSS readout_value="low polyreactivity"
sequence_input=QVQLVESGGGLVQAGGSLRLSCAASGIIFYGYAMGWYRQAPGKERELVAAIRWRGGSTYYADSVKGRFTISRDNAKNTVYLQMNSLKPADTAVYFCAADQTRYTSVFSSTRYDYWGQGTQVTVSS readout_value="low polyreactivity"
